Values were extracted from ChEMBL document CHEMBL1128605.

Measured IC50, listed per entry for reference.
molecular target: Adrenergic receptor alpha-1 (Rattus norvegicus, UniProt P15823+P23944+P43140); experiment: In vitro binding affinity against Alpha-1 adrenergic receptor using [3H]prazosin as radioligand; format: protein assay
Write the value in µM as a bare number.

// known answers, use as guide
{"compound": "C[C@@H]([C@@H](O)c1ccc(F)cc1)N1CCC(O)(c2ccccc2)CC1", "experimental_system": "Adrenergic receptor alpha-1 (Rattus norvegicus, UniProt P15823+P23944+P43140)", "IC50 / µM": 6.9}
{"compound": "C[C@H]([C@H](O)c1ccc(O)cc1)N1CCC(O)(c2ccccc2)CC1", "experimental_system": "Adrenergic receptor alpha-1 (Rattus norvegicus, UniProt P15823+P23944+P43140)", "IC50 / µM": 8.45}
{"compound": "C[C@@H]([C@@H](O)c1ccc(O)cc1)N1CCC(O)(c2ccc(F)cc2)CC1", "experimental_system": "Adrenergic receptor alpha-1 (Rattus norvegicus, UniProt P15823+P23944+P43140)", "IC50 / µM": 2.7}
{"compound": "Cc1ccc(C2(O)CCN([C@@H](C)[C@@H](O)c3ccc(O)cc3)CC2)cc1", "experimental_system": "Adrenergic receptor alpha-1 (Rattus norvegicus, UniProt P15823+P23944+P43140)", "IC50 / µM": 2.166}
{"compound": "C[C@@H]([C@@H](O)c1ccc(O)cc1)N1CCC(O)(CCCc2ccccc2)CC1", "experimental_system": "Adrenergic receptor alpha-1 (Rattus norvegicus, UniProt P15823+P23944+P43140)", "IC50 / µM": 2.35}

Challenge: May I ask what IC50 has been recorded for C[C@@H]([C@@H](O)c1ccc(O)cc1)N1CCC(O)(c2ccccc2)CC1 (stereo in doubt; 10) [TRAXOPRODIL] ?
Response given: 5.7

Challenge: May I ask what IC50 has been recorded for C[C@@H]([C@@H](O)c1ccc(O)cc1)N1CCC(O)(c2ccccc2)CC1 (stereo in doubt) [TRAXOPRODIL] ?
Response given: 19.52

Challenge: May I ask what IC50 has been recorded for C[C@@H]([C@@H](O)c1ccc(O)cc1)N1CCC(O)(CCCCc2ccccc2)CC1 ?
Response given: 2.3

----------
biological target: Glutamate NMDA receptor; assay: In vitro inhibition of glutamate induced neuronal death in primary cultures of rat hippocampal neurons.
measure: IC50 (nM)
Write the value in nM as a bare number.

{"compound": "C[C@@H]([C@@H](O)c1ccc(O)cc1)N1CCC(O)(CCCCc2ccccc2)CC1", "unit_abbrev": "nM", "IC50": 1000}
{"compound": "C[C@@H]([C@@H](O)c1ccc(O)cc1)N1CCC(O)(CCCc2ccccc2)CC1", "unit_abbrev": "nM", "IC50": 15.7}
{"compound": "C[C@@H]([C@@H](O)c1ccc(O)cc1)N1CCC(O)(c2ccc(Cl)cc2)CC1", "unit_abbrev": "nM", "IC50": 2}

Would you kindly look at the next entry?
Challenge: Form field - read-out: IC50; system: Glutamate NMDA receptor; submitted item: C[C@@H]([C@@H](O)c1ccc(O)cc1)N1CCC(O)(c2ccc(F)cc2)CC1
Response given: 4

----------
species: Rattus norvegicus; experiment: Selectivity between protection against glutamate-induced neuronal damage and alpha 1 adrenergic affinity; Not significant
Active and inactive are the calls of the source. The rule behind the calls is not given here.
measure: Selectivity ratio

{"test_smiles": "C[C@@H]([C@@H](O)c1ccc(O)cc1)N1CCN(Cc2ccccc2)CC1", "Selectivity ratio": "inactive"}
{"test_smiles": "C[C@@H]([C@@H](O)c1ccc(O)cc1)N1CCN(C(=O)c2ccccc2)CC1", "Selectivity ratio": "inactive"}
{"test_smiles": "C[C@@H]([C@@H](O)c1ccc(F)cc1)N1CCC(O)(c2ccccc2)CC1", "Selectivity ratio": "inactive"}
{"test_smiles": "C[C@@H]([C@@H](O)c1ccc(Cl)cc1)N1CCC(O)(c2ccccc2)CC1", "Selectivity ratio": "inactive"}
{"test_smiles": "C[C@@H]([C@@H](O)c1ccccc1)N1CCC(O)(c2ccccc2)CC1", "Selectivity ratio": "inactive"}

Challenge: May I ask what Selectivity ratio has been recorded for COC1(Cc2ccccc2)CCN([C@@H](C)[C@@H](O)c2ccc(O)cc2)CC1 ?
Response given: inactive

----------
organism: Rattus norvegicus; test: Selectivity between protection against glutamate-induced neuronal damage and alpha 1 adrenergic affinity
measure: Selectivity ratio
Answer field: number only, no words.

{"test_smiles": "C[C@@H]([C@@H](O)c1ccc(O)cc1)N1CCC(O)(c2ccc(F)cc2)CC1", "value": 675}
{"test_smiles": "C[C@@H]([C@@H](O)c1ccc(O)cc1)N1CCC(O)(CCCCc2ccccc2)CC1", "value": 2.3}
{"test_smiles": "C[C@@H]([C@@H](O)c1ccc(O)cc1)N1CCC(O)(CCc2ccccc2)CC1", "value": 105}

Challenge: May I ask what Selectivity ratio has been recorded for C[C@@H]([C@@H](O)c1ccc(O)cc1)N1CCC(O)(c2ccc(Cl)cc2)CC1 ?
Response given: 740

Challenge: May I ask what Selectivity ratio has been recorded for CCC[C@@H]([C@@H](O)c1ccc(O)cc1)N1CCC(O)(Cc2ccccc2)CC1 ?
Response given: 7.7

Challenge: May I ask what Selectivity ratio has been recorded for Cc1ccc(C2(O)CCN([C@@H](C)[C@@H](O)c3ccc(O)cc3)CC2)cc1 ?
Response given: 1080

Challenge: May I ask what Selectivity ratio has been recorded for C[C@@H]([C@@H](O)c1ccc(O)cc1)N1CCC(O)(CCCc2ccccc2)CC1 ?
Response given: 150

----------
Measured IC50, listed per entry for reference.
target: Adrenergic receptor alpha-1 (Rattus norvegicus, UniProt P15823+P23944+P43140); assay: In vitro binding affinity against Alpha-1 adrenergic receptor using [3H]prazosin as radioligand; type: protein assay

Challenge: May I ask what IC50 has been recorded for C[C@@H]([C@@H](O)c1ccc(O)cc1)N1CCC(O)(Cc2ccccc2)CC1 ?
Response given: > 10 µM

----------
biological target: Glutamate NMDA receptor; experiment: In vitro inhibition of glutamate induced neuronal death in primary cultures of rat hippocampal neurons.
measure: IC50 (nM)
Write the value in nM as a bare number.

{"compound": "C[C@@H]([C@@H](O)c1ccc(O)cc1)N1CCC(O)(CCc2ccccc2)CC1", "IC50 [nM]": 1.3}
{"compound": "Cc1ccc(C2(O)CCN([C@@H](C)[C@@H](O)c3ccc(O)cc3)CC2)cc1", "IC50 [nM]": 2.7}
{"compound": "CC[C@@H]([C@@H](O)c1ccc(O)cc1)N1CCC(O)(Cc2ccccc2)CC1", "IC50 [nM]": 68}

Would you kindly look at the next entry?
Challenge: May I ask what IC50 has been recorded for Oc1ccc(C(O)CN2CCC(O)(Cc3ccccc3)CC2)cc1 (centres undefined) ?
Response given: 63

----------
Measured Selectivity ratio, listed per entry for reference.
species: Rattus norvegicus; assay: Selectivity between protection against glutamate-induced neuronal damage and alpha 1 adrenergic affinity

{"molecule": "CC[C@@H]([C@@H](O)c1ccc(O)cc1)N1CCC(O)(Cc2ccccc2)CC1", "Selectivity ratio": "> 147"}
{"molecule": "C[C@@H]([C@@H](O)c1ccc(O)cc1)N1CCC(O)(Cc2ccccc2)CC1", "Selectivity ratio": "> 172"}

Would you kindly look at the next entry?
Challenge: May I ask what Selectivity ratio has been recorded for Oc1ccc(C(O)CN2CCC(O)(Cc3ccccc3)CC2)cc1 (stereo not drawn) ?
Response given: > 158

----------
target: Adrenergic receptor alpha-1 (Rattus norvegicus, UniProt P15823+P23944+P43140); assay: In vitro binding affinity against Alpha-1 adrenergic receptor using [3H]prazosin as radioligand; assay type: protein assay
measure: IC50

// known answers, use as guide
{"molecule": "Oc1ccc(C(O)CN2CCC(O)(Cc3ccccc3)CC2)cc1 (stereo not drawn)", "experimental_system": "Adrenergic receptor alpha-1 (Rattus norvegicus, UniProt P15823+P23944+P43140)", "value": "> 10 µM"}
{"molecule": "CCC[C@@H]([C@@H](O)c1ccc(O)cc1)N1CCC(O)(Cc2ccccc2)CC1", "experimental_system": "Adrenergic receptor alpha-1 (Rattus norvegicus, UniProt P15823+P23944+P43140)", "value": "> 10 µM"}
{"molecule": "CC[C@@H]([C@@H](O)c1ccc(O)cc1)N1CCC(O)(Cc2ccccc2)CC1", "experimental_system": "Adrenergic receptor alpha-1 (Rattus norvegicus, UniProt P15823+P23944+P43140)", "value": "> 10 µM"}
{"molecule": "C[C@@H]([C@@H](O)c1ccc(O)cc1)N1CCN(C(=O)c2ccccc2)CC1", "experimental_system": "Adrenergic receptor alpha-1 (Rattus norvegicus, UniProt P15823+P23944+P43140)", "value": "> 10 µM"}
{"molecule": "C[C@@H]([C@@H](O)c1ccc(O)cc1)N1CCC(O)(CCc2ccccc2)CC1", "experimental_system": "Adrenergic receptor alpha-1 (Rattus norvegicus, UniProt P15823+P23944+P43140)", "value": "0.137 µM"}
{"molecule": "C[C@@H]([C@@H](O)c1ccccc1)N1CCC(O)(c2ccccc2)CC1", "experimental_system": "Adrenergic receptor alpha-1 (Rattus norvegicus, UniProt P15823+P23944+P43140)", "value": "> 10 µM"}
{"molecule": "C[C@@H]([C@@H](O)c1ccc(O)cc1)N1CCC(O)(c2ccc(Cl)cc2)CC1", "experimental_system": "Adrenergic receptor alpha-1 (Rattus norvegicus, UniProt P15823+P23944+P43140)", "value": "1.48 µM"}

Would you kindly look at the next entry?
Challenge: May I ask what IC50 has been recorded for C[C@@H]([C@@H](O)c1ccc(Cl)cc1)N1CCC(O)(c2ccccc2)CC1 ?
Response given: 3.133 µM
